targetOrTestSystem: Rab7 GTPase (UniProt P18067)
Construct: fused on or other part: GST tag, used to hold the protein on glutathione beads
experimentNotes: Multiplex bead-based flow cytometry dose-response, BODIPY-FL-GTP binding to GST-tagged GTPase
experimentalParameters: Assay format Mg; percent response
Note to self: values exactly at 40% are 1.0. So % Res at or above 40% is 1.0, below is 0.0.

| compound | targetOrTestSystem | className |
| --- | --- | --- |
| O=C(NC(=S)Nc1sc2c(c1C(=O)O)CC1(CCCC1)OC2)c1ccccc1 | Rab7 GTPase (UniProt P18067) | 1.0 |
| CC1(C)Cc2c(sc(NC(=S)NC(=O)c3ccccc3Br)c2C(=O)O)CO1 | Rab7 GTPase (UniProt P18067) | 0.0 |

Okay, next one:
Exam item: Dear colleague, could you confirm whether CCC1(C)Cc2c(sc(NC(=S)NC(=O)c3ccccc3)c2C(=O)O)CO1 (centres unmarked) has % Res at or above 40%?
Marked response: 1.0

----------
targetOrTestSystem: Rab7 GTPase (UniProt P18067)
Construct: fused on or other part: GST tag, used to hold the protein on glutathione beads
experimentNotes: Multiplex bead-based flow cytometry dose-response, BODIPY-FL-GTP binding to GST-tagged GTPase
experimentalParameters: Assay format Mg; percent response
measure: % Res (%)
One number for each entry, in %.

| compound | unitsSymbol | % Res |
| --- | --- | --- |
| CC1(C)Cc2c(sc(NC(=S)NC(=O)C3CCCCC3)c2C(=O)O)CO1 [CID53377396] | % | 39 |

// input: 4 compounds below; output: % Res for each
1. CC1(C)Cc2c(sc(NC(=S)NC(=O)c3cccc(F)c3)c2C(=O)O)CO1 [CID53301930]
2. CC1(C)Cc2c(sc(NC(=S)NC(=O)c3ccc(F)cc3)c2C(=O)O)CO1 [CID53377405]
3. Cc1ccc(C(=O)NC(=S)Nc2sc3c(c2C(=O)O)CC(C)(C)OC3)cc1 [CID53377395]
4. CC1(C)Cc2c(sc(NC(=S)NC(=O)c3ccc(Br)cc3)c2C(=O)O)CO1 [CID53301933]

Marked response:
1: 39; 2: 39; 3: 40; 4: 41
